B1: Osa-1-4 twister ribozyme (parent)
chain: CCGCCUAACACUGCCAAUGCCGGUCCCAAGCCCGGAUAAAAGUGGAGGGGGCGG

variants of: B1; assay: self-cleavage, relative activity (ratio to wild type); higher = more cleavage; co-transcriptional
Would you mind labelling by self-cleavage? At or over 0.04 is t, under is f.

| Mutant Code | Class |
| --- | --- |
| C11G G13A | t |
| G42C U12A | t |
| G34U U43A | t |
| A16U C20G | t |
| A7C G30C | f |
| A38G C11G | t |
| G13C G51C | f |
| A40U C15A | t |
| G49A U37A | t |
| A38G G45A | t |
| C26U U12C | t |
| A10U G48C | f |
| A38C G51U | t |
| C27U G22A | t |
| C25G C52U | t |
| A46U C20G | t |
| A29U U18C | t |
| G42C U37G | t |

Cited source: the RNAGym collection of RNA variant scans (doi:10.1002/anie.201605470)
